Cas9 with SSAP activity (normalized) overview
- Test system: gene editing with Cas9
- test_name: Screen of 322 new SSAP proteins, gene editing activity with Cas9 (Table 5)
- Format: cell-based
- assay_context: normalized
- Excerpt: 322 new SSAP proteins were identified from sequence data, synthesized, and screened for activity with Cas9 and dCas9. Gene editing activities are shown below in Table 5, followed by amino acid sequences of the proteins.
Keep the answer to the number alone.

Consider the following illustrative entries.
molecule: SSAP_298: SEQ ID NO: 467; Nocardia aurea (protein, listed as Nocardia aurea) SESISAAADAQKVTPRIVLDRHRDAFAQVLPPTINLDRWLRLAESAINASAGLLDIFRRDRGASALKALMKCAQLGHEPGSGLFHLVPKGQAIEGWEDYKGILQRILRSALYAKVVVAPVYANDEYAFDVNVDERPRHKQAAGDRGEPVRAYAYAVHRDGSTSTIAEATPAMIAGAKAKGHKTDASTSPWQNPRAPMHQKVAVRELERFVSTSAVDLRVTGDVTDLIIEEP
Cas9 with SSAP activity (normalized): 0.610

molecule: SSAP_193: SEQ ID NO: 362; Mesotoga sp. TolDC (protein, listed as Mesotoga sp.) KASEIASMVKKEDERRNHKPDPLAGIVKNLTSIKGEIANALPDAGITPERMIRIVVTLLRQNKSLAEAAMQNPASLLGAVMMAAQLGLDPTNGLDQCALVPRKGKVCFDIMYEGLVELGYRSDRMESIVARTVYEKDTFSLKYGLNEELVHIPYLDGDPGESKGYYMVGKLKGGGNIIVYMTKEQVHKIRDRYSVAYKAGLSGSRKDSPWFTSEDRMGEKTVVKAGFRWIPKSPIIRTALALDETAREASRLPMRN
Cas9 with SSAP activity (normalized): −0.140

molecule: SSAP_81: SEQ ID NO: 250 (protein) TDVKQELERKVGKQDSTAVRLTKNMSIPDMIKALEPEIRRALPAVLTPERFLRMALSAVNNTPKLAECTPMSFIAAMMNAAQLGLEPNTPLGQAYLIPYKNKNQLECQFQIGYKGIIDLAYRTGQMQMIQAHAVHEFDDFEYEYGLNPKLIHRPGDGNRGEITYFYGLFKLVNGGFGFEVMNREAMEAFAQQYSQSYGSQYSPWVKNFEDMAKKTVIKKALKYGPVKAEFQKAISMDETIKTEIAVDMTEVQNEESE
Cas9 with SSAP activity (normalized): −0.341

molecule: SSAP_24: SEQ ID NO: 193 (protein) TNNQIVEAKGDFLTNPQLLNSGIIRKYLDPQGKASDEELAYFIAQAKAQNLNPFTKEIYFIKYGTQPAQIVTAKSAFEKKADSHPQFDGKEAGVIYLMDGEIKYSKGAFIPKGAEILGGWAKVYRKDRTYPTETEVSFEEYDNSKIRARVKELTQQGKDVTYPVMNSYGKPIGENNWDTMPCVMIRKVALVSAYREAFPAELGASYEADEIQLDNTPKDVTPQESREDVVARKMAEIEQFNKEQEANHADPEPTQNEDPIQGELLDGELEY
Cas9 with SSAP activity (normalized): −0.681

molecule: SSAP_249: SEQ ID NO: 418; environmental Halophage eHP-30 (protein, environmental Halophage eHP-30) TEQNQTPAKTESKSPIKAQLYKDNVQQRFQELLGERASAFMTSVMSVVKDNDQLSQAEPSSVLNAAMTAATLDMPIDNNLGMAYIVPYKDGKSGKTYAQFQLGYKGFIQLAQRSGQFKTISATPVRQGQIVTADPLRGYEFDFTQGQDKEVVGYAAYFALLNGFEKTLYMSKAEMEQHAASYAAGYKKGYSNWNRKFDEMALKTVIKQLLSKYAPLSVDMQKAQQTDQTVSVEEPNAIEQQEAAPEIDASSNNNQNQ
Cas9 with SSAP activity (normalized): −0.543

Which Cas9 with SSAP activity (normalized) reading was recorded for the molecule SSAP_25: SEQ ID NO: 194 (protein) NNEVMEKSVEYEVNGNSVKLTPNMIKQFITKGNADVTDQEAIMFMKLAEQQQLNPFLNEVYLIKFKGKPAQNIVAKEAFMKRAEKHSEYDGLEAGIIVQRGEEIKELPGAVCLPTDNLLGGWARVYRKDRKNPFYVQLDFKEFSKGQATWNQMPKNMIRKTAIVNALREAFPEALGAMYTEDDARLEEVKTAEPIKEKAETTQILENKFKELSENGQTEVGDEQTNESTEPEPTAKQEQLL ?
0.880

Which Cas9 with SSAP activity (normalized) value belongs to SSAP_28: SEQ ID NO: 197 (protein) AITPNPIPAQDGSPIPSPDDIVGELARRKIYAGIPDDDVALALALCQKYGFDPLLKHLVLLATKDRDETTGQGQKHYNAYVTRDGLLHVAHTSGMLDGLETIQGKDDLGEWAEAVVYRKDMSRPFRYRVYLSEYVREAKGVWKTHPQAMLTKTAEVFALRRAFDVALTPFEEMGFDNQNIAGDTGPSPKTGFTEKAGFTGNTDFSAEASLPGKARFSTEAGLTDMTVIPPNRVTGSIPETSRLNTSAGSTGRQRRQLF ?
0.506

Return reported Cas9 with SSAP activity (normalized); argument: SSAP_276: SEQ ID NO: 445; Oceanobacillus sp. Castelsardo (protein, listed as Oceanobacillus sp.) ATNSTLKNQISNKKQGNNQVGKTQGTTMKQLLASPAVMNRFEEVLGKRANQFTASILGLYNSEKMLQKAEPMSVISSAMIAATLDLPVDKNLGYAWIVPYGGKAQFQMGYKGYIQLALRTGQYRNINVIEVYEGELKKWDRLTEEIELDFESRTSDKVIGYTGYFELINGFRKTVYWSKEDVEKHKKRFSKSDFGWKNDWDAMARKTVIRNMLNKWGILSIDMQKGMVEDSKDPVEVNEEFSSDVIDADYEVVGENEQQDFTVEENA
−0.452
